Measured molar heat capacity of individual entries
# Test details: molar heat capacity at saturation pressure
# Conditions used: 298.15 K; Liquid

{"Smiles str": "ClCCCCl", "molar heat capacity, J/K/mol": 157.03}
{"Smiles str": "ClCCCl", "molar heat capacity, J/K/mol": 129.06}
{"Smiles str": "ClCCCCCl", "molar heat capacity, J/K/mol": 183.76}
{"Smiles str": "ClCCCCCCCl", "molar heat capacity, J/K/mol": 240.39}
{"Smiles str": "ClCCCCCCl", "molar heat capacity, J/K/mol": 212.63}

====

# Test details: molar heat capacity at saturation pressure
# Conditions used: 321.65 K; Liquid
Measured molar heat capacity of individual entries

{"Molecule": "ClCCCl [1,2-dichloroethane]", "Unit spec": "J/K/mol", "molar heat capacity": 131.09}
{"Molecule": "ClCCCCCCCl [1,6-dichlorohexane]", "Unit spec": "J/K/mol", "molar heat capacity": 247.24}
{"Molecule": "ClCCCCCl [1,4-dichlorobutane]", "Unit spec": "J/K/mol", "molar heat capacity": 188.52}
{"Molecule": "ClCCCCl [1,3-dichloropropane]", "Unit spec": "J/K/mol", "molar heat capacity": 160.93}
{"Molecule": "ClCCCCCCl [1,5-dichloropentane]", "Unit spec": "J/K/mol", "molar heat capacity": 218.56}

====

# Test details: molar heat capacity at saturation pressure
# Conditions used: 308.56 K; Liquid
Please mark true if the recorded molar heat capacity is equal to or greater than 200 J/K/mol, and false if it falls below.

{"Molecule": "ClCCCCCCCl [1,6-dichlorohexane]", "Classification": "true"}
{"Molecule": "ClCCCCl [1,3-dichloropropane]", "Classification": "false"}
{"Molecule": "ClCCCCCCl [1,5-dichloropentane]", "Classification": "true"}
{"Molecule": "ClCCCCCl [1,4-dichlorobutane]", "Classification": "false"}
{"Molecule": "ClCCCl [1,2-dichloroethane]", "Classification": "false"}

====

# Test details: molar heat capacity at saturation pressure
# Conditions used: 349.15 K; Liquid
Value kind: molar heat capacity (J/K/mol)

{"Compound": "ClCCCCCCCl [1,6-dichlorohexane]", "Value kind": "molar heat capacity", "Observed result": 255.75}
{"Compound": "ClCCCl [1,2-dichloroethane]", "Value kind": "molar heat capacity", "Observed result": 133.83}
{"Compound": "ClCCCCl [1,3-dichloropropane]", "Value kind": "molar heat capacity", "Observed result": 165.38}
{"Compound": "ClCCCCCl [1,4-dichlorobutane]", "Value kind": "molar heat capacity", "Observed result": 194}
{"Compound": "ClCCCCCCl [1,5-dichloropentane]", "Value kind": "molar heat capacity", "Observed result": 225.75}

====

Measured molar heat capacity of individual entries
# Test details: molar heat capacity at saturation pressure
# Conditions used: 331.66 K; Liquid
± gives the expanded uncertainty stated by the source.

{"Compound": "ClCCCCCCl [1,5-dichloropentane]", "molar heat capacity": "221.16 ± 1.7 J/K/mol"}
{"Compound": "ClCCCCCl [1,4-dichlorobutane]", "molar heat capacity": "190.54 ± 1.5 J/K/mol"}
{"Compound": "ClCCCCl [1,3-dichloropropane]", "molar heat capacity": "162.48 ± 1.3 J/K/mol"}
{"Compound": "ClCCCl [1,2-dichloroethane]", "molar heat capacity": "132.06 ± 1 J/K/mol"}
{"Compound": "ClCCCCCCCl [1,6-dichlorohexane]", "molar heat capacity": "250.36 ± 1.9 J/K/mol"}

====

# Test details: molar heat capacity at saturation pressure
# Conditions used: 339.16 K; Liquid
API: label(entry) gives label 1 if the entry's molar heat capacity is strictly smaller than 200 J/K/mol; on equality or larger values it gives label 0.

{"Smiles str": "ClCCCCCl", "Classification": "label 1"}
{"Smiles str": "ClCCCCCCCl", "Classification": "label 0"}
{"Smiles str": "ClCCCCl", "Classification": "label 1"}
{"Smiles str": "ClCCCl", "Classification": "label 1"}
{"Smiles str": "ClCCCCCCl", "Classification": "label 0"}

====

# Test details: molar heat capacity at saturation pressure
# Conditions used: 301.65 K; Liquid
Value kind: molar heat capacity (J/K/mol)

{"Smiles str": "ClCCCCCCl", "Value kind": "molar heat capacity", "Observed result": 213.55}
{"Smiles str": "ClCCCl", "Value kind": "molar heat capacity", "Observed result": 129.39}
{"Smiles str": "ClCCCCCl", "Value kind": "molar heat capacity", "Observed result": 184.47}
{"Smiles str": "ClCCCCl", "Value kind": "molar heat capacity", "Observed result": 157.65}
{"Smiles str": "ClCCCCCCCl", "Value kind": "molar heat capacity", "Observed result": 241.35}

====

# Test details: molar heat capacity at saturation pressure
# Conditions used: 286.66 K; Liquid
API: label(entry) gives 1 if the entry's molar heat capacity is strictly smaller than 200 J/K/mol; on equality or larger values it gives -1.

{"Smiles str": "ClCCCCCl", "Classification": 1}
{"Smiles str": "ClCCCCCCCl", "Classification": -1}
{"Smiles str": "ClCCCCl", "Classification": 1}
{"Smiles str": "ClCCCl", "Classification": 1}
{"Smiles str": "ClCCCCCCl", "Classification": -1}

====

# Test details: molar heat capacity at saturation pressure
# Conditions used: 299.16 K; Liquid
API: label(entry) gives fulfilled if the entry's molar heat capacity is strictly smaller than 200 J/K/mol; on equality or larger values it gives not fulfilled.

{"Compound": "ClCCCCl [1,3-dichloropropane]", "Classification": "fulfilled"}
{"Compound": "ClCCCCCCl [1,5-dichloropentane]", "Classification": "not fulfilled"}
{"Compound": "ClCCCCCCCl [1,6-dichlorohexane]", "Classification": "not fulfilled"}
{"Compound": "ClCCCl [1,2-dichloroethane]", "Classification": "fulfilled"}
{"Compound": "ClCCCCCl [1,4-dichlorobutane]", "Classification": "fulfilled"}

====

# Test details: molar heat capacity at saturation pressure
# Conditions used: 353.14 K; Liquid
Numbers after ± are expanded uncertainties.
Measured molar heat capacity of individual entries
Value kind: molar heat capacity

{"Smiles str": "ClCCCCCl", "Observed result": "195.12 ± 1.5 J/K/mol"}
{"Smiles str": "ClCCCCCCCl", "Observed result": "257.47 ± 2 J/K/mol"}
{"Smiles str": "ClCCCl", "Observed result": "134.46 ± 1 J/K/mol"}
{"Smiles str": "ClCCCCl", "Observed result": "166.22 ± 1.3 J/K/mol"}
{"Smiles str": "ClCCCCCCl", "Observed result": "227.13 ± 1.8 J/K/mol"}

====

# Test details: molar heat capacity at saturation pressure
# Conditions used: 316.65 K; Liquid
API: label(entry) gives met if the entry's molar heat capacity is strictly smaller than 200 J/K/mol; on equality or larger values it gives not met.

{"Smiles str": "ClCCCCl", "Classification": "met"}
{"Smiles str": "ClCCCCCCCl", "Classification": "not met"}
{"Smiles str": "ClCCCCCl", "Classification": "met"}
{"Smiles str": "ClCCCl", "Classification": "met"}
{"Smiles str": "ClCCCCCCl", "Classification": "not met"}

====

Measured molar heat capacity of individual entries
# Test details: molar heat capacity at saturation pressure
# Conditions used: 351.66 K; Liquid
Numbers after ± are expanded uncertainties.

{"Compound": "ClCCCCCCl [1,5-dichloropentane]", "molar heat capacity": "226.41 ± 1.8 J/K/mol"}
{"Compound": "ClCCCCl [1,3-dichloropropane]", "molar heat capacity": "165.81 ± 1.3 J/K/mol"}
{"Compound": "ClCCCl [1,2-dichloroethane]", "molar heat capacity": "134.22 ± 1 J/K/mol"}
{"Compound": "ClCCCCCl [1,4-dichlorobutane]", "molar heat capacity": "194.7 ± 1.5 J/K/mol"}
{"Compound": "ClCCCCCCCl [1,6-dichlorohexane]", "molar heat capacity": "257 ± 2 J/K/mol"}

====

# Test details: molar heat capacity at saturation pressure
# Conditions used: 294.15 K; Liquid

{"Compound": "ClCCCCCCl [1,5-dichloropentane]", "molar heat capacity, J/K/mol": 211.7}
{"Compound": "ClCCCCCCCl [1,6-dichlorohexane]", "molar heat capacity, J/K/mol": 239.26}
{"Compound": "ClCCCl [1,2-dichloroethane]", "molar heat capacity, J/K/mol": 128.75}
{"Compound": "ClCCCCl [1,3-dichloropropane]", "molar heat capacity, J/K/mol": 156.39}
{"Compound": "ClCCCCCl [1,4-dichlorobutane]", "molar heat capacity, J/K/mol": 182.99}

====

# Test details: molar heat capacity at saturation pressure
# Conditions used: 314.15 K; Liquid
Measured molar heat capacity of individual entries
Value kind: molar heat capacity (J/K/mol)

{"Smiles str": "ClCCCl", "Observed result": 130.4}
{"Smiles str": "ClCCCCCCCl", "Observed result": 245.06}
{"Smiles str": "ClCCCCCCl", "Observed result": 216.61}
{"Smiles str": "ClCCCCCl", "Observed result": 186.88}
{"Smiles str": "ClCCCCl", "Observed result": 159.54}
